# TARGET_ENTITY: Insulin-degrading enzyme (Homo sapiens) (UniProt P14735)
# Sequence (P14735 whole entry, looked up): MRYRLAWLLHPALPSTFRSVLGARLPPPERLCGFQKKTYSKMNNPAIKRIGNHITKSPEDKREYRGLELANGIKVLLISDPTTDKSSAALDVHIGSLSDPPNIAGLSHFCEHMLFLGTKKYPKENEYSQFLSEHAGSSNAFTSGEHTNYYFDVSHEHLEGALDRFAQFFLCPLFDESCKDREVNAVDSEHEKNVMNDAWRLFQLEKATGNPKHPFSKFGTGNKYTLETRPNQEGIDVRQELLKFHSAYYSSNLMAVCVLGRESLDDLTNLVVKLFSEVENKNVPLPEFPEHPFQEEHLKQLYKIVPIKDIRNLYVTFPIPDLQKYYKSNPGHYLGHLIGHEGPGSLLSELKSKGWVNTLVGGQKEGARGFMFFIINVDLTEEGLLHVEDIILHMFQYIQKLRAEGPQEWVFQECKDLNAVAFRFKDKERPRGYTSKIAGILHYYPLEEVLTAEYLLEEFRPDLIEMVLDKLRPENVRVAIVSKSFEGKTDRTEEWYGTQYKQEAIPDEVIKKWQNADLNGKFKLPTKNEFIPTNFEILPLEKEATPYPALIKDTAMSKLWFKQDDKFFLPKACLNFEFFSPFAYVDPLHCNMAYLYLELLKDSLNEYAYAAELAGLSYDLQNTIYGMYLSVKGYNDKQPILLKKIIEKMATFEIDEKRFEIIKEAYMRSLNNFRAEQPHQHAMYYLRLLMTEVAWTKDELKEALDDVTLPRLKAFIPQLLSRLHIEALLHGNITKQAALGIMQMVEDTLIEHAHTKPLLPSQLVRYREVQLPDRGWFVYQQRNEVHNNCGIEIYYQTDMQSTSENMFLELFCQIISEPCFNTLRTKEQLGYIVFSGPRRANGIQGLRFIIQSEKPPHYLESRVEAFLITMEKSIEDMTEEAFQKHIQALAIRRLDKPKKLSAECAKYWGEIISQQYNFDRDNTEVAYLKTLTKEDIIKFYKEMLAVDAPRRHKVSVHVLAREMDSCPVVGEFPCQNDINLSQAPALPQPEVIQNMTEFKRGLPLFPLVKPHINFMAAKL
# ASSAY_DETAILS: human IDE activators in live cells, primary screen, fluorescence polarization, HEK cells, FAbeta-B substrate (AID 493087)
# EXPERIMENTAL_CONDITIONS: FAbeta-B cleavage, at 5.96 µM, 0% vehicle, 100% cell-free pure enzyme wells
In all, about 340,000 compounds went through this assay and about 240 (0.071%) were called active.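 The calls were made as follows: active = activation above the mean of all tested compounds plus 3 SD, set per screening campaign (cut at about 17% in these data); inactive = the rest.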 What follows is part of a selection rich in actives, with near analogues and random picks from the rest.
Labels: active, inactive

- O=S(=O)(Nc1ccc2ccccc2c1)N1CCCCC1: inactive
- Cc1ccc(-c2nn(C(C)(C)C)c3ncnc(N)c23)cc1: inactive
- O=C(Nc1ccccc1C(=O)N1CCCCC1)c1ccco1: inactive
- Cc1ccc(S(=O)(=O)/N=C(\CN2CCOCC2)N2CCOCC2)cc1: inactive
- NC(=O)c1ccc(NC(=O)COC(=O)c2c3c(nc4ccccc24)/C(=C\c2ccc4c(c2)OCO4)CCC3)cc1: active
- Oc1ccc(-c2nc3ccccc3nc2-c2ccc(O)cc2O)c(O)c1: inactive
- COc1ccc(C2=NOC(C(=O)NCc3ccco3)C2)cc1OC (stereo unspecified): inactive
- CCC(C)(C)NC(=O)CN(C(=O)C(=O)Nc1ccc2c(c1)OCCO2)C(C)(C)CC: inactive
- CC1=C/C(=N\OS(=O)(=O)c2ccccc2)C=CC1=O: inactive
- Cc1cc(C)cc(NC(=O)NC2CCCCCCC2)c1: inactive
- Cc1ccc(CC(=O)N(C)CC(=O)N(CC(C)C)c2c(N)n(CC(C)C)c(=O)[nH]c2=O)cc1C: inactive
- CC1CCC(NS(=O)(=O)c2ccc3c(c2)CC(=O)N3)CC1 (stereo unspecified): inactive
- Cc1ccc(S(=O)(=O)N(C)C)cc1NC(=O)CN1c2cccc3cccc(c23)S1(=O)=O: inactive
- Oc1c(CN2CCOCC2)ccc(CN2CCOCC2)c1O: inactive
- N#Cc1cccc(CN2CCC(=O)N([C@H](CO)c3ccccc3)CC2)c1: inactive
- O=S(=O)(/C=C/c1ccccc1)NCCc1ccccn1: inactive
- CN(Cc1cccs1)C(=O)CN1C(=O)c2ccccc2S1(=O)=O: inactive
- COc1ccc(NS(=O)(=O)c2ccc(N3CCN(CCO)CC3)c([N+](=O)[O-])c2)cc1: inactive
- CCOc1ccc(N2C(=O)/C(=C/c3ccc(C)o3)N(C)C2=S)cc1: inactive
- O=C(NCc1ccncc1)C(=O)NCC1OCCN1S(=O)(=O)c1ccc(Br)cc1 (stereo unspecified): inactive
- Cc1ccccc1OC/C(O)=C(\C#N)c1nc2ccccc2[nH]1: active
